# STUDY TARGET: CDK6/Cyclin D1 (Homo sapiens (Human), UniProt Q00534)
# Sequence (Q00534 whole entry): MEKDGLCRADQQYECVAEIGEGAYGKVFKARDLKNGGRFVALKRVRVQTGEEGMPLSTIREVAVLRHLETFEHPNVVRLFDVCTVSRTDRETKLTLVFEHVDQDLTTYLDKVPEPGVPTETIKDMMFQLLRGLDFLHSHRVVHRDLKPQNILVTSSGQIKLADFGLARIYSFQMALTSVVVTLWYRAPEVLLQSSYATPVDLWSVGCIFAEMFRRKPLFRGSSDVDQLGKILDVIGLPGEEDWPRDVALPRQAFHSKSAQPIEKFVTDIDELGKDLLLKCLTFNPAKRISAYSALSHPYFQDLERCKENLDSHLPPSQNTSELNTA
# Sequence (P24385 whole entry partner): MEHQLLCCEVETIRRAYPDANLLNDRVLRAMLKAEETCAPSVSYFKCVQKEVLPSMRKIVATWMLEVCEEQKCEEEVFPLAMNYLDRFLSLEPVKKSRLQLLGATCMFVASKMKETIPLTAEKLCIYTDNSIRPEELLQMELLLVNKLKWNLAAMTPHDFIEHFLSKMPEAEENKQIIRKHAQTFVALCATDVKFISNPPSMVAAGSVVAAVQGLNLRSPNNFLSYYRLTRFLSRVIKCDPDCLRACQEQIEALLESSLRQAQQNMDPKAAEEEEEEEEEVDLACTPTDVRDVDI
# METHOD SUMMARY: CDK6/CyclinD1 enzymatic activity assay (TR-FRET)
# APPLIED CONDITIONS: ATP 250 μM, read-out: CDK6_D1 IC50
pIC50: −log10 of the molar value.
OBSERVATION TYPE: pIC50

| COMPOUND | pIC50 |
| --- | --- |
| CCN1CC2(C1)CN(c1ccc(Nc3ncc(F)c(-c4cc5nccc(C(C)C)c5s4)n3)nc1)C2 [Example 23] | 6.70 to 7.70 |
| CCN1CC2(C1)CN(c1ccc(Nc3ncc(F)c(-c4sc5c(C(C)C)cn(C)c(=O)c5c4C)n3)nc1)C2 [Example 57] | ≥ 7.70 |
| CCN1CC2(C1)CN(c1ccc(Nc3ncc(F)c(-c4cc5ncn(C(C)C)c5s4)n3)nc1)C2 [Example 129] | ≥ 7.70 |
| CCN1CC2(C1)CN(c1ccc(Nc3ncc(F)c(-c4cc5c(=O)n(C)nc(C6CN(C(=O)OC(C)(C)C)C6)c5s4)n3)nc1)C2 [Example 109] | 6.70 to 7.70 |
| CCN1CC2(C1)CN(c1ccc(Nc3ncc(F)c(-c4sc5c(nc(C)n5C(C)C)c4C)n3)nc1)C2 [Example 52] | ≥ 7.70 |

Would you kindly share the measured pIC50 for Cc1c(-c2nc(Nc3ccc(N4CCN(C)CC4)cn3)ncc2F)sc2c(C(C)C)cn(C)c(=O)c12 [Example 51] ?
≥ 7.70

# repeat for CCN1CC2(C1)CN(c1ccc(Nc3ncc(F)c(-c4sc5c(c4C)c(=O)ncn5C(C)C)n3)nc1)C2 [Example 62]
≥ 7.70

Origin of measurements: patent US11685744B2
